target: T1, residue mutated to A: I (also: biotinylated, attachment site not given here); assay: ELISA on streptavidin-immobilized biotinylated 15mer peptides; area under the signal vs antibody concentration curve;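 further: antibody binding to each alanine-substituted peptide expressed relative to binding to the natural peptide, using curve area determined separately for every peptide-antibody pair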
T1 construct: position from the legend (CFH1114-1121)
T1 peptide: GPPPPADNGDITSFP
Ends that are not written are not given here.
MEASURED ENDPOINT: percent of binding to the natural peptide (AUC) (%)
Report the value in % with no unit label.

Reference set, count: 3
Ab7961/293i (antibody, V domains shown, Recombinant human mAb) VH: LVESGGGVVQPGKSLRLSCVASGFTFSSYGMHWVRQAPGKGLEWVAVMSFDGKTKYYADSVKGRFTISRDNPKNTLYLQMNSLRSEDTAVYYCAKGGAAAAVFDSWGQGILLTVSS VL: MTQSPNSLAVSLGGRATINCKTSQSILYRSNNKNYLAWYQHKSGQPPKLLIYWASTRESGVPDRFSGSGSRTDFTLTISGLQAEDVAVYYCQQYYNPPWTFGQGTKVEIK : 52
CFH mAb7968 (antibody, V domains shown, also called CBAb1) VH: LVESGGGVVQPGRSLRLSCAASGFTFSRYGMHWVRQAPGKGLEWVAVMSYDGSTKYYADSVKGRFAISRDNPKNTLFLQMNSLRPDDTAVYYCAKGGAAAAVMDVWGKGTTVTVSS VL: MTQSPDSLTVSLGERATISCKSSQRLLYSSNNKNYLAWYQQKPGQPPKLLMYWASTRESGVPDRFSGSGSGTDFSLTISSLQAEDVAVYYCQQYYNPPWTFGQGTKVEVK : 73
Ab7957/293i (antibody, V domains shown, Recombinant human mAb) VH: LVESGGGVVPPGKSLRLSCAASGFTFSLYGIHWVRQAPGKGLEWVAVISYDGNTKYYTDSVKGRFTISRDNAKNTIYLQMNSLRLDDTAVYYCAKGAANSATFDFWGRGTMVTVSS VL: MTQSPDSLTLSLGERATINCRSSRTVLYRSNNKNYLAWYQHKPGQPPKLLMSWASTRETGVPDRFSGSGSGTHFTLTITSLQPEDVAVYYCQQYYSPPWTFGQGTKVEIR : 61

## Task Identify measured percent of binding to the natural peptide (AUC) associated with Ab7960/293i (antibody, V domains shown, Recombinant human mAb) VH: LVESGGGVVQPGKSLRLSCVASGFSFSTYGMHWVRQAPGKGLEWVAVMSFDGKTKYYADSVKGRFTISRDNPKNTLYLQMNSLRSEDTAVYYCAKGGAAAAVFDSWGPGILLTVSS VL: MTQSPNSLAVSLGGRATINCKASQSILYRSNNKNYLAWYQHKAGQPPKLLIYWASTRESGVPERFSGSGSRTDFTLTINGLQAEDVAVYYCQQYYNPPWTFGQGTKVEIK
## Result 43

## Task Identify measured percent of binding to the natural peptide (AUC) associated with Ab7979 (antibody, V domains shown, Recombinant human mAb) VH: LVESGGGVVQPGKSLRLSCVASGFTFSTYGMHWVRQAPGKGLEWVAVMSFDGKTKYYADSVKGRFTISRDNPKNTLYLQMNSLRSEDTAVYYCAKGGAAAAVFDSWGQGILLTVSS VL: MTQSPNSLAVSLGGRATINCKTSQSILYRSNNKNYLAWYQHKPGQPPKLLIYWASTRESRVPDRFSGSGSRTDFTLTISGLQAEDVAVYYCQQYYNPPWTFGQGTKVEIK
## Result 61
